# maps each entry to its Survival Rate of Vero Cells @ 20 μg/mL
Test system: Vero cells
Assay Summary: Vero cell viability (MTT, Promega Cell Titer 96)
Readout Label: Survival Rate of Vero Cells @ 20 μg/mL (%)

Compound: O/N=C1\c2ccccc2-c2c(N3CCC(O)CC3)nc3ccccc3c21 [Compound 7]
Unit Name: %
Assay Result: 84.14
--
Compound: CO/N=C1\c2ccccc2-c2c(N3CCC(O)CC3)nc3ccccc3c21 [Compound 8]
Unit Name: %
Assay Result: 91.48
--
Compound: NNC(=O)c1ccncc1 [INH, isoniazid, reference compound]
Unit Name: %
Assay Result: 84.80
--
Compound: CC1(O)c2ccccc2-c2c(N3CCC(O)CC3)nc3ccccc3c21 (stereo not drawn) [Compound 6]
Unit Name: %
Assay Result: 89.83
--
Compound: O=C1c2ccccc2-c2c(N3CCC(CO)CC3)nc3ccccc3c21 [Compound 3f]
Unit Name: %
Assay Result: 91.11
--
Compound: O=C1c2ccccc2-c2c(N3CCCC(O)C3)nc3ccccc3c21 (stereo not drawn) [Compound 3e]
Unit Name: %
Assay Result: 87.78
--
Compound: OC1CCN(c2nc3ccccc3c3c2-c2ccccc2C3)CC1 [Compound 5]
Unit Name: %
Assay Result: 85.41
--
Compound: COc1ccc2c(c1)C(=O)c1c-2c(N2CCCC2)nc2ccccc12 [Compound 4a]
Unit Name: %
Assay Result: 89.62
--
Compound: COc1ccc2c(c1)C(=O)c1c-2c(N2CCOCC2)nc2ccccc12 [Compound 4c]
Unit Name: %
Assay Result: 94.47

----------
Tested on: fMLF-activated human neutrophils (superoxide anion generation)
Assay Summary: Superoxide anion generation in fMLF-activated human neutrophils
Assay type: cell-based
Assay Context: Neutrophil; fMLF/cytochalasin B-activated human neutrophils; mean ± SEM (n = 3)

Compound: COc1ccc2c(c1)C(=O)c1c-2c(N2CCOCC2)nc2ccccc12
Measurement Target: fMLF-activated human neutrophils (superoxide anion generation)
Qualifier Symbol: >
IC50 [nM]: 10000
//
Compound: OC1CCN(c2nc3ccccc3c3c2-c2ccccc2C3)CC1
Measurement Target: fMLF-activated human neutrophils (superoxide anion generation)
Qualifier Symbol: =
IC50 [nM]: 4020
//
Compound: NC(=O)N/N=C1\c2ccccc2-c2c(N3CCC(O)CC3)nc3ccccc3c21
Measurement Target: fMLF-activated human neutrophils (superoxide anion generation)
Qualifier Symbol: =
IC50 [nM]: 3640
//
Compound: CC1(O)c2ccccc2-c2c(N3CCC(O)CC3)nc3ccccc3c21 (stereo not shown)
Measurement Target: fMLF-activated human neutrophils (superoxide anion generation)
Qualifier Symbol: >
IC50 [nM]: 10000
//
Compound: COc1ccc2c(c1)C(=O)c1c-2c(N2CCCC(O)C2)nc2ccccc12 (stereo not shown)
Measurement Target: fMLF-activated human neutrophils (superoxide anion generation)
Qualifier Symbol: =
IC50 [nM]: 1890
//
Compound: O=C1c2ccccc2-c2c(N3CCCC(O)C3)nc3ccccc3c21 (stereo not shown)
Measurement Target: fMLF-activated human neutrophils (superoxide anion generation)
Qualifier Symbol: =
IC50 [nM]: 2900
//
Compound: O=C1c2ccccc2-c2c(N3CCCC3)nc3ccccc3c21
Measurement Target: fMLF-activated human neutrophils (superoxide anion generation)
Qualifier Symbol: >
IC50 [nM]: 10000
//
Compound: COc1ccc2c(c1)C(=O)c1c-2c(N2CCC(CO)CC2)nc2ccccc12
Measurement Target: fMLF-activated human neutrophils (superoxide anion generation)
Qualifier Symbol: =
IC50 [nM]: 1930
//
Compound: O=C(N/N=C1\c2ccccc2-c2c(N3CCC(O)CC3)nc3ccccc3c21)c1ccncc1
Measurement Target: fMLF-activated human neutrophils (superoxide anion generation)
Qualifier Symbol: =
IC50 [nM]: 1720
//
Compound: O=C1c2ccccc2-c2c(N3CCCC(CO)C3)nc3ccccc3c21 (stereo not shown)
Measurement Target: fMLF-activated human neutrophils (superoxide anion generation)
Qualifier Symbol: =
IC50 [nM]: 2770
//
Compound: NC(=S)N/N=C1\c2ccccc2-c2c(N3CCC(O)CC3)nc3ccccc3c21
Measurement Target: fMLF-activated human neutrophils (superoxide anion generation)
Qualifier Symbol: =
IC50 [nM]: 2410
//
Compound: O/N=C1\c2ccccc2-c2c(N3CCC(O)CC3)nc3ccccc3c21
Measurement Target: fMLF-activated human neutrophils (superoxide anion generation)
Qualifier Symbol: =
IC50 [nM]: 830
//
Compound: COc1ccc2c(c1)C(=O)c1c-2c(N2CCCC2)nc2ccccc12
Measurement Target: fMLF-activated human neutrophils (superoxide anion generation)
Qualifier Symbol: >
IC50 [nM]: 10000
//
Compound: COc1ccc2c(c1)C(=O)c1c-2c(N2CCCCC2)nc2ccccc12
Measurement Target: fMLF-activated human neutrophils (superoxide anion generation)
Qualifier Symbol: >
IC50 [nM]: 10000
//
Compound: O=C1c2ccccc2-c2c(N3CCOCC3)nc3ccccc3c21
Measurement Target: fMLF-activated human neutrophils (superoxide anion generation)
Qualifier Symbol: >
IC50 [nM]: 10000
//
Compound: COc1ccc2c(c1)C(=O)c1c-2c(N2CCCC(CO)C2)nc2ccccc12 (stereo not shown)
Measurement Target: fMLF-activated human neutrophils (superoxide anion generation)
Qualifier Symbol: =
IC50 [nM]: 680
//
Compound: O=C1c2ccccc2-c2c(N3CCC(O)CC3)nc3ccccc3c21
Measurement Target: fMLF-activated human neutrophils (superoxide anion generation)
Qualifier Symbol: =
IC50 [nM]: 1780
//
Compound: O=C1c2ccccc2-c2c(N3CCCCC3)nc3ccccc3c21
Measurement Target: fMLF-activated human neutrophils (superoxide anion generation)
Qualifier Symbol: >
IC50 [nM]: 10000
//
Compound: O=C(N/N=C1\c2ccccc2-c2c(N3CCC(O)CC3)nc3ccccc3c21)c1ccccc1
Measurement Target: fMLF-activated human neutrophils (superoxide anion generation)
Qualifier Symbol: =
IC50 [nM]: 1670
//
Compound: O=C1c2ccccc2-c2c(N3CCC(CO)CC3)nc3ccccc3c21
Measurement Target: fMLF-activated human neutrophils (superoxide anion generation)
Qualifier Symbol: =
IC50 [nM]: 3370
//
Compound: CO/N=C1\c2ccccc2-c2c(N3CCC(O)CC3)nc3ccccc3c21
Measurement Target: fMLF-activated human neutrophils (superoxide anion generation)
Qualifier Symbol: =
IC50 [nM]: 2680
//
Compound: COc1ccc2c(c1)C(=O)c1c-2c(N2CCC(O)CC2)nc2ccccc12
Measurement Target: fMLF-activated human neutrophils (superoxide anion generation)
Qualifier Symbol: =
IC50 [nM]: 2820
